// reported melting point for each item listed
Outcome Measure: melting point

compound="CCCS(=O)CC(=O)NNC(=O)N1Cc2ccccc2Oc2ccc(Cl)cc21 (stereo unspecified)" result="158 to 160 °C"
compound=NC(=O)c1cc(-c2ccc(F)cc2)ccc1O result="206 to 207 °C"
compound=CN(CC(=O)O)C(=O)Nc1ccc(Cl)c(Cl)c1 result="103 to 105 °C"
compound=Sc1nccn1-c1nccs1 result="211 to 213 °C"
compound="CCCCCC(=O)OCC(CO)CCn1cnc2c(=O)[nH]c(N)nc21 (stereo unspecified)" result="179 to 181 °C"
compound=OCc1cnoc1-c1ccc(F)cc1F result="60 to 61 °C"

Reference source for all entries: a melting point compilation (Tetko et al.; mined from patent text by program, amines drawn as free bases though some values may be those of a salt)
